method summary: amyloid nucleation score (Sup35N fusion, yeast selection) (log enrichment); library NNK3; higher = more nucleation; inactive = no reads after selection;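 note: zero at mode of non-aggregating sequences after 7 days selection at 30°C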
measured attribute: amyloid nucleation score

Below are worked cases with known answers.
[[record]]
substance = "CLIVTLTHMS"
test_value = 1.64

[[record]]
substance = "IRRLDEVNEWANSYKLWKKQ"
test_value = "inactive"

[[record]]
substance = "MGHHRCYVRVSKKDYWF"
test_value = "inactive"

[[record]]
substance = "YRTRESGLY"
test_value = -0.425

[[record]]
substance = "LSFQAMLVR"
test_value = "inactive"

[[record]]
substance = "RVMAMYIGV"
test_value = "inactive"


Exercise: Which amyloid nucleation score value belongs to GDKISANACSMNFFDMFW ?
Key: inactive

Exercise: Next record, please: DYVNRCI
Key: inactive

---

method summary: amyloid nucleation score (Sup35N fusion, yeast selection) (log enrichment); library NNK1; higher = more nucleation; inactive = no reads after selection
measured attribute: amyloid nucleation score

Below are worked cases with known answers.
[[record]]
sequence_chain = "MIMLIWVINSLTYGLEGLTA"
measured_attribute = "amyloid nucleation score"
test_value = 0.919

[[record]]
sequence_chain = "FVMLFSCRST"
measured_attribute = "amyloid nucleation score"
test_value = 0.38

[[record]]
sequence_chain = "LPWPRNRFCTLIDEIHTPVY"
measured_attribute = "amyloid nucleation score"
test_value = -0.167

[[record]]
sequence_chain = "HLIKRYGYSCVRWVC"
measured_attribute = "amyloid nucleation score"
test_value = 0.003

[[record]]
sequence_chain = "YFPVGWLTLGISPCGVGDLF"
measured_attribute = "amyloid nucleation score"
test_value = -0.151

[[record]]
sequence_chain = "SNSRPGSGYSLFERTRYRNE"
measured_attribute = "amyloid nucleation score"
test_value = 0.345


Exercise: Which amyloid nucleation score value belongs to STEVGYSFCHGGMSRTVCMC ?
Key: 1.45

Exercise: Next record, please: VVCQVNIHLNGVCLHRCLEE
Key: 6.86

Exercise: Next record, please: YHSSKGCIVCCR
Key: -0.391

---

method summary: amyloid nucleation score (Sup35N fusion, yeast selection) (log enrichment); library NNK3; higher = more nucleation; inactive = no reads after selection
measured attribute: amyloid nucleation score

Below are worked cases with known answers.
[[record]]
substance = "AIGDVTVGRIHFDMHCGLGR"
test_value = -0.955

[[record]]
substance = "AYSSWALMLGHTMCIYGGFR"
test_value = 1.55

[[record]]
substance = "ITRTSDLFMLGSLINRGIAA"
test_value = "inactive"

[[record]]
substance = "KFKENMYLTYSCLHKVIMRF"
test_value = "inactive"

[[record]]
substance = "GESNLCDAG"
test_value = "inactive"

[[record]]
substance = "SWCLERHGTRWSEFNYGPSS"
test_value = "inactive"

[[record]]
substance = "RACHFQVIMCMICALCGFAS"
test_value = 1.91

[[record]]
substance = "MRVVECLMRSLCRLDVRVHC"
test_value = "inactive"


Exercise: Which amyloid nucleation score value belongs to EMRKAIRRL ?
Key: inactive

---

method summary: amyloid nucleation score (Sup35N fusion, yeast selection) (log enrichment); library NNK3; higher = more nucleation; inactive = no reads after selection
measured attribute: amyloid nucleation score

Below are worked cases with known answers.
[[record]]
substance = "RDMPLMGVYKIPVDAFYSVS"
test_value = "inactive"

[[record]]
substance = "RPPHYQCMCSLVLSSRRNIQ"
test_value = "inactive"

[[record]]
substance = "SFNVTVRGLSSSN"
test_value = 0.027

[[record]]
substance = "KPLCLFQARRYRW"
test_value = "inactive"


Exercise: Which amyloid nucleation score value belongs to SLVAFPLFAGCVIW ?
Key: inactive

Exercise: Next record, please: WGLRFFIWQPRDMFSACCTC
Key: 1.6

Exercise: Next record, please: RGICFGYLGFM
Key: 0.145

Exercise: Next record, please: IQAAEVWMTAPFGFDMEGGR
Key: inactive

Exercise: Next record, please: IQISYNWW
Key: 0.75

Exercise: Next record, please: EIIFSSLSIPLYMLEGI
Key: inactive

Exercise: Next record, please: MCWLLLIRWDK
Key: inactive

Exercise: Next record, please: LYWATGLGVNFKFNLCLDDA
Key: inactive

Exercise: Next record, please: ETFVGLEVNWNSCNCFIVQE
Key: 1.87

Exercise: Next record, please: GLSYNFHLCQVLVIFMVDGS
Key: 1.66

Exercise: Next record, please: NTIHITTWDELVQLAQCDNL
Key: inactive

Exercise: Next record, please: IFIQLSDLMQSKVAHECGWC
Key: inactive

Exercise: Next record, please: SVGRQSLYDL
Key: 0.285

Exercise: Next record, please: FGILSDIVCSTVVKNCDL
Key: inactive

Exercise: Next record, please: VIRRHWR
Key: inactive

Exercise: Next record, please: AIRGVARLRVMDRVSALPLR
Key: inactive

Exercise: Next record, please: TNYRYSFGISYS
Key: inactive

Exercise: Next record, please: SDYYMENISFCENMRDILFS
Key: inactive

Exercise: Next record, please: PELRRLTMESYIRNFWSVLS
Key: inactive

Exercise: Next record, please: YAYEIRRLT
Key: inactive

---

method summary: amyloid nucleation score (Sup35N fusion, yeast selection) (log enrichment); library NNK3; higher = more nucleation; inactive = no reads after selection
measured attribute: amyloid nucleation score

Below are worked cases with known answers.
[[record]]
substance = "VNEERGNYVWSCIMRYHLWD"
test_value = "inactive"

[[record]]
substance = "IVFLLLVRLLVFIP"
test_value = "inactive"

[[record]]
substance = "DKSDQSSRRFSGTRAYFSTM"
test_value = "inactive"

[[record]]
substance = "VVSLPTNILSNTIGEYMEVQ"
test_value = "inactive"

[[record]]
substance = "FLDIRMMIRRLTGGPESVSL"
test_value = "inactive"


Exercise: Which amyloid nucleation score value belongs to VVNKPIHISSTYTLYSVVLA ?
Key: inactive

Exercise: Next record, please: ARSDGLF
Key: inactive

Exercise: Next record, please: KNGKWRGISSYRNRRFNTGI
Key: inactive

Exercise: Next record, please: VKMTGDVVTLHLRDLINCWA
Key: inactive

Exercise: Next record, please: SFLYDSVNANLNSTCCCGYI
Key: -0.913

Exercise: Next record, please: VMFIVNLY
Key: 3.07

Exercise: Next record, please: NWAGLHIVKYRLPPHTHLWH
Key: inactive

Exercise: Next record, please: AGNIACVLSLCTYNARYRTR
Key: 3.19

Exercise: Next record, please: VHVVLIIWTSHQLTCADLAY
Key: inactive

Exercise: Next record, please: IDHKCCNNTVS
Key: inactive

Exercise: Next record, please: YAGSCK
Key: inactive

Exercise: Next record, please: LIGNTSGMILHSTITDEAWL
Key: inactive

Exercise: Next record, please: TRPGLKWWVLRRMRHFGRRV
Key: inactive

Exercise: Next record, please: ELFKEVCEGEFRAS
Key: inactive

---

In this section we review reported amyloid nucleation score values for a set of substances.
method summary: amyloid nucleation score (Sup35N fusion, yeast selection) (log enrichment); library NNK1; higher = more nucleation; inactive = no reads after selection
Enter the number alone.

Below are worked cases with known answers.
[[record]]
substance = "DRRKAPGLMNAMD"
measured_attribute = "amyloid nucleation score"
test_value = 0.737

[[record]]
substance = "LDSCPAL"
measured_attribute = "amyloid nucleation score"
test_value = 0.47

[[record]]
substance = "GYRTLLS"
measured_attribute = "amyloid nucleation score"
test_value = 0.372

[[record]]
substance = "SYDNLRSRREGPEVVGRRAP"
measured_attribute = "amyloid nucleation score"
test_value = 0.569

[[record]]
substance = "SVLNSDCNCGIKSWFTDIIM"
measured_attribute = "amyloid nucleation score"
test_value = 1.96

[[record]]
substance = "EFIKWRAIGENSYGKGDMDR"
measured_attribute = "amyloid nucleation score"
test_value = 0.387


Exercise: Which amyloid nucleation score value belongs to ASPHWGSCNKTLRDGPRQVL ?
Key: -0.677

---

method summary: amyloid nucleation score (Sup35N fusion, yeast selection) (log enrichment); library NNK1; higher = more nucleation; inactive = no reads after selection
Assign condition met whenever amyloid nucleation score does not fall below 0.08; assign condition not met whenever it does.

A selection of reference data follows.
[[record]]
substance = "VCVHDLCSLIQLGAYVMRET"
assigned_label = "condition met"

[[record]]
substance = "VISSSVWFFATMQDCWVGRQ"
assigned_label = "condition met"

[[record]]
substance = "LVIPVDRDANGLCYR"
assigned_label = "condition met"


Exercise: Evaluate MKDYHSDHIKIVQANHTEKV : amyloid nucleation score at minimum 0.08?
Key: condition not met

Exercise: Next record, please: SVGEDSSFRRDSKINEGDCD
Key: condition met

Exercise: Next record, please: QTLCCETRWSGENRSDAFRV
Key: condition not met

Exercise: Next record, please: AKLMGCYMQRSICITRVPFL
Key: condition met

Exercise: Next record, please: LLCWRYFSCSYFLECVGSTS
Key: condition not met

Exercise: Next record, please: NYIVLFSSRDVCTHNMYKTV
Key: condition met

Exercise: Next record, please: EGYYEPVIVI
Key: condition met

Exercise: Next record, please: RKNSNDEASS
Key: condition not met
